- ASSAY_TARGET: Recombinant IKKβ (Homo sapiens)
- Construct: purchased Millipore, Dundee, UK
- ASSAY_OVERVIEW: DELFIA IKKβ kinase assay (apparent Ki, Cheng-Prusoff)
- Format: biochemical
- MEASUREMENT_CONTEXT: DELFIA assay (first line of an example)
pKi: −log10 of the molar value.

- COMPOUND: "COC(=O)Nc1cc(-c2cc(-c3ccc(CCN4CCOCC4)cc3)c3[nH]nc(N)c3c2)ccn1"
  COMPARISON_SYMBOL: "<"
  pKi: 5.00
- COMPOUND: "Nc1n[nH]c2ccc(-c3ccnc4[nH]c(C5CCCCO5)cc34)cc12 (centres unmarked)"
  COMPARISON_SYMBOL: "="
  pKi: 6.57
- COMPOUND: "Nc1n[nH]c2c(C#CC3CCCCC3)cc(-c3ccnc4[nH]ccc34)cc12"
  COMPARISON_SYMBOL: "="
  pKi: 5.93
- COMPOUND: "Nc1n[nH]c2ccc(-c3ccnc4[nH]c(C(=O)NC5CCCC5)cc34)cc12"
  COMPARISON_SYMBOL: "="
  pKi: 7.15
- COMPOUND: "Nc1n[nH]c2ccc(-c3ccnc4[nH]c(CNc5ccccc5COc5ccccc5)cc34)cc12"
  COMPARISON_SYMBOL: "="
  pKi: 6.48
- COMPOUND: "Nc1n[nH]c2ccc(-c3ccnc4[nH]c(C5CCOCC5)cc34)cc12"
  COMPARISON_SYMBOL: "="
  pKi: 7.01
- COMPOUND: "Nc1n[nH]c2ccc(-c3ccnc4[nH]c(CN5CCCCC5)cc34)cc12"
  COMPARISON_SYMBOL: "="
  pKi: 5.76
- COMPOUND: "CC(C)N(CCNC(=O)c1cc2c(-c3ccc4[nH]nc(N)c4c3)ccnc2[nH]1)C(C)C"
  COMPARISON_SYMBOL: "="
  pKi: 6.98

----------
- ASSAY_TARGET: Recombinant IKKβ (Homo sapiens)
- Construct: purchased Millipore, Dundee, UK
- ASSAY_OVERVIEW: DELFIA IKKβ kinase assay (apparent Ki, Cheng-Prusoff)
- Assay type: biochemical
- MEASUREMENT_CONTEXT: DELFIA assay (first line of an example)
Returns: string. Value is 1 if measured Ki is below 100 nM, and -1 if it is greater than or equal to it.

- MOLECULE: "CC(C)(C)C#Cc1cc(-c2ccnc3[nH]c(C(F)(F)F)nc23)cc2c(N)n[nH]c12 [Example 308]"
  CLASS_LABEL: -1
- MOLECULE: "Nc1n[nH]c2c(-c3ccoc3)cc(-c3ccnc4[nH]ccc34)cc12 [Example 199]"
  CLASS_LABEL: 1
- MOLECULE: "Nc1n[nH]c2ccc(-c3ccnc4[nH]c(CC5CCCCC5)cc34)cc12 [Example 221]"
  CLASS_LABEL: -1
- MOLECULE: "CC(C)(C)C#Cc1cc(-c2ccnc(Nc3nnc[nH]3)c2)cc2c(N)n[nH]c12 [Example 319]"
  CLASS_LABEL: -1
- MOLECULE: "CC(C)OCCCNCc1cc2c(-c3ccc4[nH]nc(N)c4c3)ccnc2[nH]1 [Example 257]"
  CLASS_LABEL: -1
- MOLECULE: "CC(C)(C)C#Cc1cc(-c2ccnc(Nc3cc[nH]n3)c2)cc2c(N)n[nH]c12 [Example 310]"
  CLASS_LABEL: -1
- MOLECULE: "Nc1n[nH]c2c(C#CC3CC3)cc(-c3ccnc(NC4COC4)c3)cc12 [Example 284]"
  CLASS_LABEL: -1
- MOLECULE: "Nc1n[nH]c2ccc(-c3ccnc4[nH]c(CCCN5CCOCC5)cc34)cc12 [Example 271]"
  CLASS_LABEL: -1
- MOLECULE: "CC(C)(C)C#Cc1cc(-c2ccnc3[nH]c(C4CC4)cc23)cc2c(N)n[nH]c12 [Example 294]"
  CLASS_LABEL: -1
- MOLECULE: "CC(C)(C)C#Cc1cc(-c2ccnc(NC3CCOC3)c2)cc2c(N)n[nH]c12 (centres unmarked) [Example 322]"
  CLASS_LABEL: -1
- MOLECULE: "Nc1n[nH]c2ccc(-c3ccnc4[nH]c(CC5CCOCC5)cc34)cc12 [Example 230]"
  CLASS_LABEL: -1
- MOLECULE: "CC(C)(O)CCc1cc(-c2ccnc(NC(=O)C3CC3)c2)cc2c(N)n[nH]c12 [Example 292]"
  CLASS_LABEL: 1
- MOLECULE: "CN(C)CCCNC(=O)c1cc2c(-c3ccc4[nH]nc(N)c4c3)ccnc2[nH]1 [Example 247]"
  CLASS_LABEL: 1
- MOLECULE: "Nc1n[nH]c2c(Cl)cc(-c3ccnc4[nH]c(CCN5CCOCC5)cc34)cc12 [Example 277]"
  CLASS_LABEL: 1
- MOLECULE: "COC(=O)Nc1cc(-c2cc(-c3ccc(N)cc3)c3[nH]nc(N)c3c2)ccn1 [Example 325]"
  CLASS_LABEL: 1
- MOLECULE: "COC(=O)Nc1cc(-c2cc(C#CC3(O)CCCC3)c3[nH]nc(N)c3c2)ccn1 [Example 304]"
  CLASS_LABEL: -1
- MOLECULE: "Nc1n[nH]c2ccc(-c3ccnc4[nH]c(CO)cc34)cc12 [Example 224]"
  CLASS_LABEL: -1

----------
- ASSAY_TARGET: Recombinant IKKα (Homo sapiens)
- Construct: purchased Millipore, Dundee, UK
- Sequence (O15111 whole entry): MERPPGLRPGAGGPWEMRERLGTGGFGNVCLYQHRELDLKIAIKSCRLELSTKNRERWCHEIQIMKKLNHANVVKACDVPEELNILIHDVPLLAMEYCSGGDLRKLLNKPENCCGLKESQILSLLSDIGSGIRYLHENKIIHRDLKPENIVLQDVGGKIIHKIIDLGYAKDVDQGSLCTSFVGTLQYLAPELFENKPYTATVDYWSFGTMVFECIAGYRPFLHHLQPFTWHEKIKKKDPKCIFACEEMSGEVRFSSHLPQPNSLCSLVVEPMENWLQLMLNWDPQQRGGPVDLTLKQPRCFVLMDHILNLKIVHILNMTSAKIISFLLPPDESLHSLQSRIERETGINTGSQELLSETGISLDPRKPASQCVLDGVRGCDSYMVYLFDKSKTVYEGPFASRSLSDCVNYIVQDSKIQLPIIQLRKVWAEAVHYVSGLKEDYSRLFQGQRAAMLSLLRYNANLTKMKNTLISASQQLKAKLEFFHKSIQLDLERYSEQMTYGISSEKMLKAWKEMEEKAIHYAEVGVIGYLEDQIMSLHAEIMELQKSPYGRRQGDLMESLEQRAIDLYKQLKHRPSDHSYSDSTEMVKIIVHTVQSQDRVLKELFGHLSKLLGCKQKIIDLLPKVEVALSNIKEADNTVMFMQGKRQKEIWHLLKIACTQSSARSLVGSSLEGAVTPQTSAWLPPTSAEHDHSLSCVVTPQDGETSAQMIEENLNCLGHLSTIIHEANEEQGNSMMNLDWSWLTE
- ASSAY_OVERVIEW: DELFIA IKKα kinase assay (apparent Ki, Cheng-Prusoff)
- Assay type: biochemical
- MEASUREMENT_CONTEXT: non-italicised figure: DELFIA assay
Reported Ki values for the following compounds.

- LINE_NOTATION: "Nc1n[nH]c2ccc(-c3ccnc(NC(=O)NCc4cccnc4)c3)cc12"
  VALUE_UNITS: "nM"
  Ki: 76
- LINE_NOTATION: "Nc1cc(-c2cc(C#CCCO)c3[nH]nc(N)c3c2)ccn1"
  VALUE_UNITS: "nM"
  Ki: 186
- LINE_NOTATION: "Nc1cc(-c2cc(Cl)c3[nH]nc(N)c3c2)ccn1"
  VALUE_UNITS: "nM"
  Ki: 55
- LINE_NOTATION: "CC(C)OCCCNc1cc(-c2ccc3[nH]nc(N)c3c2)ccn1"
  VALUE_UNITS: "nM"
  Ki: 76
- LINE_NOTATION: "Nc1n[nH]c2ccc(-c3ccnc(NC(=O)Nc4cccc(OCc5ccccc5)c4)c3)cc12"
  VALUE_UNITS: "nM"
  Ki: 38

----------
- ASSAY_TARGET: Recombinant IKKβ (Homo sapiens, UniProt O14920)
- Construct: purchased Millipore, Dundee, UK
- Sequence (O14920 whole entry): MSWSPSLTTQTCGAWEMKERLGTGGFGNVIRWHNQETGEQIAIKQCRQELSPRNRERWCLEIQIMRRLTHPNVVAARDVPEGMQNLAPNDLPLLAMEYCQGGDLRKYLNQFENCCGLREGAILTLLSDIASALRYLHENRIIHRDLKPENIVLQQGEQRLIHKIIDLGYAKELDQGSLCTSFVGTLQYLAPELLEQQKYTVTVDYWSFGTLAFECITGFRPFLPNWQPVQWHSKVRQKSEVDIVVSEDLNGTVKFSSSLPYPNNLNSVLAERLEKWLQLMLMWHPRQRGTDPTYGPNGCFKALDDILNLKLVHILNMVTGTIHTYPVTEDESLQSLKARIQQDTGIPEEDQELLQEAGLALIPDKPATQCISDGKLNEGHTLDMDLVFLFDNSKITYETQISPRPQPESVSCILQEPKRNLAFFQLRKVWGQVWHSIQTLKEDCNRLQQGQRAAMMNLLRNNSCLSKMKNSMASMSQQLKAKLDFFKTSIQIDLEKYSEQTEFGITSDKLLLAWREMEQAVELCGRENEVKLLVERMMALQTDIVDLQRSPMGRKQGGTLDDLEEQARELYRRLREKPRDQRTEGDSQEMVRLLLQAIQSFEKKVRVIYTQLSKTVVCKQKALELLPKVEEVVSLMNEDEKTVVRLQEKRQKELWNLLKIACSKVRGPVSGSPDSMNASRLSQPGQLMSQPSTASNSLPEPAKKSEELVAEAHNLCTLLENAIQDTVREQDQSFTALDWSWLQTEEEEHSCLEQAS
- ASSAY_OVERVIEW: DELFIA IKKβ kinase assay (apparent Ki, Cheng-Prusoff)
- Type: biochemical
- MEASUREMENT_CONTEXT: DELFIA assay (first line of an example)
pKi: −log10 of the molar value.
Listing of entries alongside the reported pKi.

- LINE_NOTATION: "CC(C)(C)N1CCN(Cc2cc3c(-c4ccc5[nH]nc(N)c5c4)ccnc3[nH]2)CC1"
  pKi: 6.55
- LINE_NOTATION: "CC(C)(C)C#Cc1cc(-c2ccnc(NC(=O)Nc3ccccc3)c2)cc2c(N)n[nH]c12"
  pKi: 4.71
- LINE_NOTATION: "Nc1n[nH]c2c(C#CCCCN3CCOCC3)cc(-c3ccnc4[nH]ccc34)cc12"
  pKi: 5.51
- LINE_NOTATION: "Cn1nnc(Nc2cc(-c3cc(C#CC(C)(C)C)c4[nH]nc(N)c4c3)ccn2)n1"
  pKi: 7.73
- LINE_NOTATION: "Nc1n[nH]c2c(C#CCCCN3CCCCC3)cc(-c3ccnc4[nH]ccc34)cc12"
  pKi: 5.62
- LINE_NOTATION: "CC(C)(C)C#Cc1cc(-c2ccnc(Nc3ncco3)c2)cc2c(N)n[nH]c12"
  pKi: 6.23
- LINE_NOTATION: "CC(=O)Nc1cc(-c2cc(-c3ccncc3)c3[nH]nc(N)c3c2)ccn1"
  pKi: 7.15
- LINE_NOTATION: "CC(C)(C)C#Cc1cc(-c2ccnc3[nH]c(CO)cc23)cc2c(N)n[nH]c12"
  pKi: 6.57

----------
- ASSAY_TARGET: Recombinant IKKβ (Homo sapiens, UniProt O14920)
- Construct: purchased Millipore, Dundee, UK
- ASSAY_OVERVIEW: DELFIA IKKβ kinase assay (apparent Ki, Cheng-Prusoff)
- Assay type: biochemical
- MEASUREMENT_CONTEXT: non-italicised figure: DELFIA assay
pKi: −log10 of the molar value.
We use 6 as the dividing line for pKi: on or above the line is 1, below is 0.

- COMPOUND: "Nc1cc(-c2cc(-c3ccc(O)cc3)c3[nH]nc(N)c3c2)ccn1 [Example 117]"
  ASSAY_TARGET: "Recombinant IKKβ (Homo sapiens, UniProt O14920)"
  CLASS_LABEL: 1
- COMPOUND: "Nc1nccc(-c2ccc3[nH]nc(N)c3c2)c1C#Cc1ccccc1 [Example 75]"
  ASSAY_TARGET: "Recombinant IKKβ (Homo sapiens, UniProt O14920)"
  CLASS_LABEL: 1
- COMPOUND: "COC(=O)Nc1cc(-c2cc(C#CC(C)(C)N)c3[nH]nc(N)c3c2)ccn1 [Example 181]"
  ASSAY_TARGET: "Recombinant IKKβ (Homo sapiens, UniProt O14920)"
  CLASS_LABEL: 1
- COMPOUND: "Nc1n[nH]c2ccc(-c3ccnc(N[C@H]4CC[C@H](O)CC4)c3)cc12 [Example 24]"
  ASSAY_TARGET: "Recombinant IKKβ (Homo sapiens, UniProt O14920)"
  CLASS_LABEL: 0
- COMPOUND: "Nc1nccc(-c2ccc3[nH]nc(N)c3c2)c1C#CCCC(=O)c1ccccc1 [Example 82]"
  ASSAY_TARGET: "Recombinant IKKβ (Homo sapiens, UniProt O14920)"
  CLASS_LABEL: 1
- COMPOUND: "CC(C)(C)c1ccc(NC(=O)Nc2cc(-c3ccc4[nH]nc(N)c4c3)ccn2)cc1 [Example 64]"
  ASSAY_TARGET: "Recombinant IKKβ (Homo sapiens, UniProt O14920)"
  CLASS_LABEL: 0
- COMPOUND: "Nc1n[nH]c2ccc(-c3ccnc(NC(=O)Nc4cccc(OCc5ccccc5)c4)c3)cc12 [Example 57]"
  ASSAY_TARGET: "Recombinant IKKβ (Homo sapiens, UniProt O14920)"
  CLASS_LABEL: 0
- COMPOUND: "Nc1nccc(-c2ccc3[nH]nc(N)c3c2)c1C#CCCO [Example 84]"
  ASSAY_TARGET: "Recombinant IKKβ (Homo sapiens, UniProt O14920)"
  CLASS_LABEL: 1
- COMPOUND: "Nc1cc(-c2cc(-c3cccc(S(N)(=O)=O)c3)c3[nH]nc(N)c3c2)ccn1 [Example 114]"
  ASSAY_TARGET: "Recombinant IKKβ (Homo sapiens, UniProt O14920)"
  CLASS_LABEL: 1
- COMPOUND: "Nc1n[nH]c2ccc(-c3ccnc(NC(=O)Nc4ccc(Cl)cc4)c3)cc12 [Example 63]"
  ASSAY_TARGET: "Recombinant IKKβ (Homo sapiens, UniProt O14920)"
  CLASS_LABEL: 0
- COMPOUND: "Cc1cc(-c2ccnc(N)c2)cc2c(N)n[nH]c12 [Example 2]"
  ASSAY_TARGET: "Recombinant IKKβ (Homo sapiens, UniProt O14920)"
  CLASS_LABEL: 1
- COMPOUND: "COC(=O)c1cccc(C#Cc2c(-c3ccc4[nH]nc(N)c4c3)ccnc2N)c1 [Example 79]"
  ASSAY_TARGET: "Recombinant IKKβ (Homo sapiens, UniProt O14920)"
  CLASS_LABEL: 1
- COMPOUND: "Nc1n[nH]c2ccc(-c3ccnc(NC(=O)Nc4cccc(Cl)c4)c3)cc12 [Example 52]"
  ASSAY_TARGET: "Recombinant IKKβ (Homo sapiens, UniProt O14920)"
  CLASS_LABEL: 1
